B1: glmS ribozyme (parent)
chain: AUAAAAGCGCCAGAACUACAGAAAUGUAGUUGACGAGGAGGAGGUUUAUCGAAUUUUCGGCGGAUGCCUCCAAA

variants of: B1; experiment: self-cleavage kobs at 2500 uM GlcN6P; higher = faster cleavage; RNA array; details: with glucosamine-6-phosphate
This sample holds only a part of the variants without activity.
Listed next: entries and their corresponding self-cleavage kobs at 2500 uM GlcN6P.

mutationlist="C8U G51U U57C" result="< 1e-05 s⁻¹"

Entry A6C A12U U49A A53G U54A : reported self-cleavage kobs at 2500 uM GlcN6P = ?
< 1e-05 s⁻¹
